- Organism: Homo sapiens
- protocol summary: Selectivity index, ratio of Ki for inhibition of human CA4 to Ki for inhibition of human CA12
reported metric: Ratio Ki

Here is how some molecules turned out for Ratio Ki.
[[record]]
record_smiles = "CCN(CC(=O)N(CCc1ccc(S(N)(=O)=O)cc1)Cc1ccccc1)Cc1ccccc1"
reported_metric = "Ratio Ki"
value = "> 121"

[[record]]
record_smiles = "CCCCCCN(CCCCCC)CC(=O)N(CCc1ccc(S(N)(=O)=O)cc1)Cc1ccccc1"
reported_metric = "Ratio Ki"
value = "> 108"


Lookup: Ratio Ki for CCCCCCCCN(CCCCCCCC)CC(=O)N(CCc1ccc(S(N)(=O)=O)cc1)Cc1ccccc1 ?
Found: > 101

====

Recorded measurements of Ratio Ki, one per entry
- Species: Homo sapiens
- protocol summary: Selectivity index, ratio of Ki for inhibition of human CA1 to Ki for inhibition of human CA4

// worked examples, Ratio Ki included
[[record]]
record_smiles = "N#CCCN(CCc1ccccc1)CC(=O)N(CCc1ccc(S(N)(=O)=O)cc1)Cc1ccc(F)cc1"
value = 0.2

[[record]]
record_smiles = "CCN(CCC(=O)N(CCc1ccc(S(N)(=O)=O)cc1)Cc1ccccc1)Cc1ccccc1"
value = "< 0.05"

[[record]]
record_smiles = "NS(=O)(=O)c1ccc(CCN(Cc2ccccc2)C(=O)CN(Cc2ccccc2)Cc2ccccc2)cc1"
value = "< 0.09"


Next:
Lookup: Recorded Ratio Ki of CCCCCCCCN(CCCCCCCC)CCC(=O)N(CCc1ccc(S(N)(=O)=O)cc1)Cc1ccccc1 , please.
Found: < 0.02

====

- Species on record: Homo sapiens
- protocol summary: Selectivity index, ratio of Ki for inhibition of human CA2 to Ki for inhibition of human CA4
reported metric: Ratio Ki

[[record]]
record_smiles = "NCCCN(CCc1ccccc1)CC(=O)N(CCc1ccc(S(N)(=O)=O)cc1)Cc1ccco1"
value = 0.2


A. N#CCCN(CCc1ccccc1)CC(=O)N(CCc1ccc(S(N)(=O)=O)cc1)Cc1ccc([N+](=O)[O-])cc1
B. CCCCCN(CCCCC)CCC(=O)N(CCc1ccc(S(N)(=O)=O)cc1)Cc1ccccc1
Lookup: Given the two records A and B , choose the one whose Ratio Ki value is lower. Respond with the label that goes with your answer.
Found: A

1. N#CCCN(CCc1ccccc1)CC(=O)N(CCc1ccc(S(N)(=O)=O)cc1)Cc1ccco1
2. NS(=O)(=O)c1ccc(CCN(Cc2ccccc2)C(=O)CCN(Cc2ccccc2)Cc2ccccc2)cc1
3. CCCCCCN(CCCCCC)CC(=O)N(CCC(=O)O)CCc1ccc(S(N)(=O)=O)cc1
Lookup: Please rank these compounds by Ratio Ki in descending order. Form field (ranking): labels in requested order.
Found: 3, 1, 2
(3: 12.8, 1: 0.2, 2: 0.1)

====

- Organism: Homo sapiens
- protocol summary: Selectivity index, ratio of Ki for inhibition of human CA1 to Ki for inhibition of human CA4
reported metric: Ratio Ki

Some solved entries appear below for comparison.
[[record]]
record_smiles = "CCCCCCN(CCCCCC)CCC(=O)N(CCc1ccc(S(N)(=O)=O)cc1)Cc1ccco1"
reported_metric = "Ratio Ki"
value = 0.07

[[record]]
record_smiles = "CCCCCN(CCCCC)CCC(=O)N(CCc1ccc(S(N)(=O)=O)cc1)Cc1ccccc1"
reported_metric = "Ratio Ki"
value = 0.2

[[record]]
record_smiles = "NS(=O)(=O)c1ccc(CCN(Cc2ccc(F)cc2)C(=O)CN(CCC(=O)O)CCc2ccccc2)cc1"
reported_metric = "Ratio Ki"
value = 0.2


P. NS(=O)(=O)c1ccc(CCN(Cc2ccccc2)C(=O)CCN(Cc2ccccc2)Cc2ccccc2)cc1
Q. NS(=O)(=O)c1ccc(CCNCc2ccc(F)cc2)cc1
R. NS(=O)(=O)c1ccc(CCN(Cc2ccc3ccccc3c2)C(=O)CN(CCC(=O)O)CCc2ccccc2)cc1
Lookup: Reorder the items by Ratio Ki, least to greatest. Write the labels in rank order as requested.
Found: Q, P, R
(Q: 0.09, P: 0.2, R: 0.3)

====

- Species on record: Homo sapiens
- protocol summary: Selectivity index, ratio of Ki for inhibition of human CA1 to Ki for inhibition of human CA12
reported metric: Ratio Ki

Sample records with Ratio Ki:
[[record]]
record_smiles = "N#CCCN(CCc1ccccc1)CC(=O)N(CCc1ccc(S(N)(=O)=O)cc1)Cc1ccc([N+](=O)[O-])cc1"
reported_metric = "Ratio Ki"
value = 4.6

[[record]]
record_smiles = "NS(=O)(=O)c1ccc(CCN(Cc2ccccc2)C(=O)CN(Cc2ccccc2)Cc2ccccc2)cc1"
reported_metric = "Ratio Ki"
value = 8.8

[[record]]
record_smiles = "NS(=O)(=O)c1ccc(CCN(Cc2ccccc2)C(=O)CCN(Cc2ccccc2)Cc2ccccc2)cc1"
reported_metric = "Ratio Ki"
value = 2.3


1. N#CCCN(CCc1ccccc1)CC(=O)N(CCc1ccccc1)CCc1ccc(S(N)(=O)=O)cc1
2. CCCCCCCC/C=C\CCCCCCCCNC(=O)CCN(CCc1ccccc1)CC(=O)N(CCc1ccc(S(N)(=O)=O)cc1)Cc1ccco1
Lookup: Sort 1 and 2 by Ratio Ki descending and give the first. Kindly give the label for the entry you pick.
Found: 2
(2: 134, 1: 10.3)

a. N#CCCN(CCc1ccccc1)CC(=O)N(CCC#N)CCc1ccc(S(N)(=O)=O)cc1
b. NCCCN(CCc1ccccc1)CC(=O)N(CCc1ccccc1)CCc1ccc(S(N)(=O)=O)cc1
c. CCCCCCN(CCCCCC)CCC(=O)N(CCc1ccc(S(N)(=O)=O)cc1)Cc1ccco1
d. N#CCCN(CCc1ccccc1)CC(=O)N(CCc1ccc(S(N)(=O)=O)cc1)Cc1ccco1
e. NS(=O)(=O)c1ccc(CCN(Cc2ccc(F)cc2)C(=O)CN(CCC(=O)O)CCc2ccccc2)cc1
Lookup: Order the 5 molecules from highest to lowest Ratio Ki. List each label, following the requested order.
Found: d, c, e, a, b

A. CCN(CC)CCC(=O)N(CCc1ccc(S(N)(=O)=O)cc1)Cc1ccccc1
B. NS(=O)(=O)c1ccc(CCN(Cc2ccc3ccccc3c2)C(=O)CN(CCC(=O)O)CCc2ccccc2)cc1
Lookup: Quick one: lower Ratio Ki, A or B ? Lab note: record the label of whichever item you select.
Found: A
(A: 3, B: 29)

====

- Species: Homo sapiens
- protocol summary: Selectivity index, ratio of Ki for inhibition of human CA1 to Ki for inhibition of human CA2
reported metric: Ratio Ki

Would you please look over these solved cases?
[[record]]
record_smiles = "NS(=O)(=O)c1ccc(CCN(Cc2ccccc2)C(=O)CN(Cc2ccccc2)Cc2ccccc2)cc1"
value = 2.1

[[record]]
record_smiles = "NCCCN(CCc1ccccc1)CC(=O)N(CCc1ccc(S(N)(=O)=O)cc1)Cc1ccc(F)cc1"
value = 14.9

[[record]]
record_smiles = "CCCCCCN(CCCCCC)CCC(=O)N(CCc1ccc(S(N)(=O)=O)cc1)Cc1ccccc1"
value = 0.5

[[record]]
record_smiles = "NS(=O)(=O)c1ccc(CCNCc2ccc3ccccc3c2)cc1"
value = 5.3


I. CCCCCCN(CCCCCC)CC(=O)N(CCCN)CCc1ccc(S(N)(=O)=O)cc1
II. N#CCCN(CCc1ccccc1)CC(=O)N(CCc1ccc(S(N)(=O)=O)cc1)Cc1ccc([N+](=O)[O-])cc1
Lookup: Identify the entry with the larger Ratio Ki. Options: I and II Answer by stating the label of the chosen item.
Found: II

A. NS(=O)(=O)c1ccc(CCNCCc2ccccc2)cc1
B. NS(=O)(=O)c1ccc(CCNCc2ccc([N+](=O)[O-])cc2)cc1
C. CCCCCN(CCCCC)CCC(=O)N(CCc1ccc(S(N)(=O)=O)cc1)Cc1ccccc1
D. CCCCCCCC/C=C\CCCCCCCCNC(=O)CCN(CCc1ccccc1)CC(=O)N(CCc1ccc(S(N)(=O)=O)cc1)Cc1ccco1
Lookup: Ranking field: Ratio Ki; order: falling. // ordering of labels required in reply
Found: D, A, B, C
(D: 5.6, A: 3.1, B: 1.9, C: 1.1)

A. CCCCCCN(CCCCCC)CC(=O)N(CCc1ccc(S(N)(=O)=O)cc1)Cc1ccccc1
B. NS(=O)(=O)c1ccc(CCNCc2ccc(F)cc2)cc1
Lookup: Short answer wanted: higher Ratio Ki, A or B ? Lab note: record the label of whichever item you select.
Found: A

I. NS(=O)(=O)c1ccc(CCN(CCc2ccccc2)C(=O)CN(CCC(=O)O)CCc2ccccc2)cc1
II. NS(=O)(=O)c1ccc(CCN(Cc2ccc(F)cc2)C(=O)CN(CCC(=O)O)CCc2ccccc2)cc1
Lookup: In the pair I and II , the larger recorded Ratio Ki belongs to which? Identify your pick by its label.
Found: II
(II: 4.1, I: 2.8)

====

- system tested: Carbonic anhydrase 1 (Homo sapiens)
- Sequence (P00915 whole entry): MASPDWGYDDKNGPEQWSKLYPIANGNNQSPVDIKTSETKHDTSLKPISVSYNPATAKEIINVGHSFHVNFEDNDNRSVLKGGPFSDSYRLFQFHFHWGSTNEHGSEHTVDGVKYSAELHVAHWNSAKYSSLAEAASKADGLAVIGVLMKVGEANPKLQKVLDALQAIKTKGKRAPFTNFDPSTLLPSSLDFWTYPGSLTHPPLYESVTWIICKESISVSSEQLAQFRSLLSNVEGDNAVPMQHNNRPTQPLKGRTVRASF
pKi: −log10 of the molar value.
reported metric: pKi

[[record]]
record_smiles = "N#CCCN(CCc1ccccc1)CC(=O)N(CCc1ccccc1)CCc1ccc(S(N)(=O)=O)cc1"
value = 6.11


P. NS(=O)(=O)c1ccc(CCN(Cc2ccccc2)C(=O)CN(Cc2ccccc2)Cc2ccccc2)cc1
Q. CCCCCCN(CCCCCC)CC(=O)N(CCCN)CCc1ccc(S(N)(=O)=O)cc1
Lookup: Which numeric pKi is bigger, that of P or that of Q ? To answer, give the label that identifies your chosen option.
Found: Q
(Q: 6.36, P: 6.06)
